meta.source: patent US20050282743A1

Molecular target: GST-KIAA1634 PDZ domain 4 (Homo sapiens (Human)), Q5TCQ9
Sequence (Q5TCQ9 844-945): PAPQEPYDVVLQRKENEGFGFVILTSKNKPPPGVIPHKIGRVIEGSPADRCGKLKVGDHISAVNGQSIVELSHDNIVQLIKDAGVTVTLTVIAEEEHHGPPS
Assay: G assay titration, PDZ 5 ug/ml
Below, each entry is listed alongside its reported Kd.
Give your result in µM as a bare value.

binder | recorded measurement
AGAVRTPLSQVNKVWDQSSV (modifications not checked) [CITRON protein] | 8

For the next question, use this binder.
Value of measured Kd for the entry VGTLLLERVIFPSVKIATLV (modifications not checked) [AdenoE4 typ9] : 0.2
